Biological target: α7^Q79G,Y115F,G175K-GlyR (Homo sapiens, UniProt P36544, G175K/Q79G/Y115F)
Construct: expressed in transfected cells
Sequence (P36544 with tags, fused parts or gaps Q79G/Y115F/G175K): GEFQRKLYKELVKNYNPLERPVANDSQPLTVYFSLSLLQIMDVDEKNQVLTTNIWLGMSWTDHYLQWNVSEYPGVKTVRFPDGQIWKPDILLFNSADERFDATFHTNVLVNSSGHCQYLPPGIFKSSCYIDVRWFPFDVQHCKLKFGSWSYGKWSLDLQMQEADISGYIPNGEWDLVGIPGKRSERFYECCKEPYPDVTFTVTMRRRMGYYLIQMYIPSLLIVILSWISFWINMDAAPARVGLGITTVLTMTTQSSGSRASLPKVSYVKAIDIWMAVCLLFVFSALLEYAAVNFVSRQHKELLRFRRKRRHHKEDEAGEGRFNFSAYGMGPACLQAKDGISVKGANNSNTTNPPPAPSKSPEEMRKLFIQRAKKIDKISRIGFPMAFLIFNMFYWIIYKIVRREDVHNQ
Test: Agonist potency at chimeric channel
Format: cell-based
Details: Table 6; read-out: Potency, a7Gly Q79G G175K Y115F
pEC50: −log10 of the molar value.

| Compound | Value comparator | pEC50 |
| --- | --- | --- |
| COc1ccc2[nH]cc(C(=O)O[C@H]3C[C@H]4CC[C@@H](C3)N4C)c2c1 | = | 7.11 |
| FC(F)(F)Oc1ccc(NC(=S)N[C@H]2CN3CCC2CC3)cc1 | = | 6.10 |
| CN(C)CCCN1c2ccccc2Sc2ccccc21 | < | 4.00 |
| c1ccc2c(c1)Sc1ccccc1N2CC1CN2CCC1CC2 (stereo not drawn) | < | 5.00 |
| CN1C2CCC1CC(NC(=S)c1cn(C)c3ccccc13)C2 (stereo not drawn) | = | 6.03 |
| FC(F)(F)Oc1ccc(NC(=S)N[C@@H]2CN3CCC2CC3)cc1 | = | 4.62 |

###

Target: α7^W77F,G175K,Y210F-GlyR (Homo sapiens, UniProt P36544, G175K/W77F/Y210F)
Sequence (P36544 with tags, fused parts or gaps W77F/G175K/Y210F): as the sequence (P36544 with tags, fused parts or gaps Q79G/Y115F/G175K) above, with W55F, G57Q, F93Y, Y188F counted along it
Test: Agonist potency at chimeric channel
pEC50: −log10 of the molar value.
Result type: pEC50

| Compound | Tested system | Value comparator | Result number |
| --- | --- | --- | --- |
| O=c1cccc2n1C[C@@H]1CNC[C@H]2C1 | α7^W77F,G175K,Y210F-GlyR (Homo sapiens, UniProt P36544, G175K/W77F/Y210F) | = | 5.29 |
| Clc1ccc(C2CC3CCC2N3)cn1 (stereo not drawn) [Epibatidine] | α7^W77F,G175K,Y210F-GlyR (Homo sapiens, UniProt P36544, G175K/W77F/Y210F) | = | 6.42 |
| O=C(NC1CN2CCC1CC2)c1ccc(Cl)cc1 (stereo not drawn) | α7^W77F,G175K,Y210F-GlyR (Homo sapiens, UniProt P36544, G175K/W77F/Y210F) | < | 4.40 |

###

Target: α7-5HT3 (Homo sapiens, UniProt P36544, M226I/T225I)
Construct: expressed in transfected cells; host or cells: HEK cells
Sequence (P36544 with tags, fused parts or gaps T225I/M226I): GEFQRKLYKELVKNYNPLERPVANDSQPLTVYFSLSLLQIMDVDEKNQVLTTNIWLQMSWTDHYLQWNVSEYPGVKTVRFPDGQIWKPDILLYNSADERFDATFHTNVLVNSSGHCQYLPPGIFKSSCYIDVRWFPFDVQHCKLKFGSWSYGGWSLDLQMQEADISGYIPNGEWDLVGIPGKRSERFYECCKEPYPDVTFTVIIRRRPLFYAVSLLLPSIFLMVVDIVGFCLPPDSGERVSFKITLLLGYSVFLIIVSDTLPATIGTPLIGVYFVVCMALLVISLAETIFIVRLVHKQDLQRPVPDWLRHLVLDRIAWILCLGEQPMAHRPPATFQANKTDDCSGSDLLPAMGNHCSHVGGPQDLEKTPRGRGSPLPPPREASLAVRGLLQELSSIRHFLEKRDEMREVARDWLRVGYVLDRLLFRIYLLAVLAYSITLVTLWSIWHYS
Assay: Agonist potency (EC50), HEK cells expressing chimeric channel
Format: cell-based, human α7 nAChR LBD, murine 5HT3 IPD
Conditions: Table 6; read-out: Potency, a7-5HT3
Quick reference: EC50 of the listed items.
Result type: EC50

| Compound | Tested system | Result |
| --- | --- | --- |
| Fc1ccc(NC(=S)N[C@H]2CN3CCC2CC3)cc1Cl [Compound 702] | α7-5HT3 (Homo sapiens, UniProt P36544, M226I/T225I) | > 100 µM |
| CN(C)CCCN1c2ccccc2Sc2ccccc21 [Promazine] | α7-5HT3 (Homo sapiens, UniProt P36544, M226I/T225I) | > 100 µM |
| FC(F)(F)Oc1ccc(NC(=S)N[C@H]2CN3CCC2CC3)cc1 [Compound 684] | α7-5HT3 (Homo sapiens, UniProt P36544, M226I/T225I) | > 100 µM |
| FC(F)(F)Oc1ccc(NC(=S)N[C@@H]2CN3CCC2CC3)cc1 [Compound 713] | α7-5HT3 (Homo sapiens, UniProt P36544, M226I/T225I) | > 100 µM |
| Cc1ccc(Cl)cc1NC(=S)N[C@H]1CN2CCC1CC2 [Compound 705] | α7-5HT3 (Homo sapiens, UniProt P36544, M226I/T225I) | > 100 µM |
| Fc1c(Cl)cccc1NC(=S)N[C@H]1CN2CCC1CC2 [Compound 701] | α7-5HT3 (Homo sapiens, UniProt P36544, M226I/T225I) | > 100 µM |
| c1ccc2c(c1)Sc1ccccc1N2CC1CN2CCC1CC2 (stereo not shown) [Mequitazine] | α7-5HT3 (Homo sapiens, UniProt P36544, M226I/T225I) | > 30 µM |
| COc1ccc2[nH]cc(C(=O)O[C@H]3C[C@H]4CC[C@@H](C3)N4C)c2c1 [Compound 736] | α7-5HT3 (Homo sapiens, UniProt P36544, M226I/T225I) | 0.83 µM |
| Fc1ccc(Cl)cc1NC(=S)N[C@H]1CN2CCC1CC2 [Compound 703] | α7-5HT3 (Homo sapiens, UniProt P36544, M226I/T225I) | > 100 µM |
| CN1C2CCC1CC(NC(=S)c1cn(C)c3ccccc13)C2 (stereo not shown) [Compound 622] | α7-5HT3 (Homo sapiens, UniProt P36544, M226I/T225I) | > 100 µM |
